Measured values drawn from the supplement of paper PMC11780869 for this set.

Test system: Bacillus subtilis
method-notes: cleaved RNA product abundance (RNA/gDNA barcode ratio) relative to median wild-type variant (ratio to wild type); higher = more accumulation of the downstream cleavage product
particulars: experiment (reporter, strain, medium): exp 4a: truncated aprE reporter, strain BJT201 with 2% xylose (RNase J1 expressed); cleavage site: cggR-gapA (positions -7 to +36 mutated)
So I've got a bunch of sequences here, and I need their cleaved RNA product abundance values.
Give bare numbers.

Recorded results for 10 sequences are shown here.
ACAGACGAAGGAGCCGCAAAGAAGTTATTAAAGGATGAAGAATCCCTCAATATAAATATCTCTCACTTATTTAAA :: 0.232
ACAGACGAAGGAGCCGCAAAGCAGTTATTAAGGGATGAATAATCCATCAATATAAATATCTCTCACTTATTTAAA :: 0.172
ACAGACGAAGGAGCCGCAAAGATGTTATTAAGGGATGAATAATCCCTCAATATACATATCTCTCACTTATTTAAA :: 0.483
ACAGACGAAGGAGCCGCAAAGAAGTTATAAAGGGATGAATAATCTCTCAATATAAATATCTCTCACTTATTTAAA :: 0.338
ACAGACGAAGGAGCCGCAAAGAAGTTATTAAGGGATGTAAAATCCCTCAATATAAATATCTCTCACTTATTTAAA :: 1.04
ACAGACGAAGGAGCCGCAAAGAAATTATTAAGGGATGTATAATCCCTCAATATAAATATCTCTCACTTATTTAAA :: 0.789
ACAGACGAAGGAGCCGCAAAGAAGTTATTAAGAGTTGAATAATCCCTCAATATAAATATCTCTCACTTATTTAAA :: 0.0897
ACAGACGAAGGAGCCGCAAAGATGTTATTAAGAGATGAATAATCCCTCAATATAAATATCTCTCACTTATTTAAA :: 0.156
ACAGACGAAGGAGCCGCAAAGAAGTTAATAAGGGATGAATAATCCCTCAATATAAATACCTCTCACTTATTTAAA :: 0.201
ACAGACGAAGGAGCCGCAAAGAATTTATTAAGGGATGAATAATCCCTCAATATAAATGTCTCTCACTTATTTAAA :: 0.282

Working through the 4 sequences below one at a time, give cleaved RNA product abundance for each.
1. ACAGACGAAGGAGCCGCAAAGAAGTTATTAACGGATGAATTATCCCTCAATATAAATATCTCTCACTTATTTAAA
2. ACAGACGAAGGAGCCGCAAAGAAGTTATTAAGGTATCAATAATCCCTCAATATAAATATCTCTCACTTATTTAAA
3. ACAGACGAAGGAGCCGCAAAGAAGTTATTAAGCGATGAATTATCCCTCAATATAAATATCTCTCACTTATTTAAA
4. ACAGACGAAGGAGCCGCGAAGAAGTTATTAAGGGATGAATAATCCCTCAATATAAATAACTCTCACTTATTTAAA

Response given:
1. 0.179
2. 0.125
3. 0.101
4. 0.969

Challenge: Note down cleaved RNA product abundance recorded for ACAGACGAAGGAGCCGCAAAGAATTTATGAAGGGATGAATAATCCCTCAATATAAATATCTCTCACTTATTTAAA
Response given: 0.325
